Parameter Emax: see the listing below.
- measurement_target: Peroxisome proliferator-activated receptor alpha (Homo sapiens) (UniProt Q07869)
- Sequence (Q07869 whole entry): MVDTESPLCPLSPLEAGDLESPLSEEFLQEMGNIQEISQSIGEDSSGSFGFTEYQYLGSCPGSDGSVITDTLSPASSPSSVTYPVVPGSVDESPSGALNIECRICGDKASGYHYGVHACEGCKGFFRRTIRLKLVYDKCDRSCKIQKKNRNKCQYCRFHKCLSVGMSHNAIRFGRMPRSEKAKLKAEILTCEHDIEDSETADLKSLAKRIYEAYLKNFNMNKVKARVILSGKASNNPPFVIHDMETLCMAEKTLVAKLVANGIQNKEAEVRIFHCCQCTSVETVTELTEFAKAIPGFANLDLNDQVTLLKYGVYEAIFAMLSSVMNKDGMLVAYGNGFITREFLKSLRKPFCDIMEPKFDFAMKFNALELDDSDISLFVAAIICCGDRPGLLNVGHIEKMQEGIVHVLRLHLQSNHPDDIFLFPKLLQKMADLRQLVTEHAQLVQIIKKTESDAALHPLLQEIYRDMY
- assay_protocol: Transactivation of human full length PPARalpha expressed in COS1 cells co-transfected with RXRalpha after 24 hrs by luciferase reporter gene assay relative to WY14643
- Type: cell-based
- condition_summary: COS-1

Answer with the recorded Emax of "C/C=C/C=C/C(=O)N1Cc2cc(OCCc3nc(/C=C/C(C)C)oc3C)ccc2C[C@H]1C(=O)O.CC(C)(C)N" only.
62%

Answer with the recorded Emax of "C/C=C/C=C/C(=O)N1Cc2cc(OCCc3nc(/C=C/C(C)(C)C)oc3C)ccc2C[C@H]1C(=O)O.CC(C)(C)N" only.
< 50%

Answer with the recorded Emax of "C/C=C/C=C/C(=O)N1Cc2cc(OCCc3nc(/C=C/CC(C)C)oc3C)ccc2C[C@H]1C(=O)O.CC(C)(C)N" only.
81%

Answer with the recorded Emax of "CC(C)(C)N.CCC/C=C/C(=O)N1Cc2cc(OCCc3nc(/C=C/CCC(C)C)oc3C)ccc2C[C@H]1C(=O)O" only.
< 50%

Answer with the recorded Emax of CC(C)(C)N.CCC(O)/C=C/C(=O)N1Cc2cc(OCCc3nc(/C=C/CCC(C)C)oc3C)ccc2C[C@H]1C(=O)O (stereo not given in full) only.
< 50%

Answer with the recorded Emax of "CC(C)(C)N.CCCCCC(=O)N1Cc2cc(OCCc3nc(/C=C/CCC(C)C)oc3C)ccc2C[C@H]1C(=O)O" only.
< 50%

Answer with the recorded Emax of "CC(C)(C)N.Cc1oc(/C=C/CCC(C)C)nc1CCOc1ccc2c(c1)CN(C(=O)/C=C/c1ccco1)[C@H](C(=O)O)C2" only.
< 50%

Answer with the recorded Emax of CN(CCOc1ccc(CC2SC(=O)NC2=O)cc1)c1ccccn1 (stereo not given) [ROSIGLITAZONE] only.
105%

Answer with the recorded Emax of "CC(C)(C)N.Cc1oc(/C=C/CCC(C)C)nc1CCOc1ccc2c(c1)CN(C(=O)/C=C/c1cccs1)[C@H](C(=O)O)C2" only.
< 50%

Answer with the recorded Emax of "C/C=C/C=C(\C)C(=O)N1Cc2cc(OCCc3nc(/C=C/CCC(C)C)oc3C)ccc2C[C@H]1C(=O)O.CC(C)(C)N" only.
< 50%

Answer with the recorded Emax of "C/C=C/C=C/C(=O)N1Cc2cc(OCCc3nc(/C(=C/C)CC)oc3C)ccc2C[C@H]1C(=O)O.CC(C)(C)N" only.
< 50%

Answer with the recorded Emax of "CC(C)(C)N.Cc1oc(/C=C/CCC(C)C)nc1CCOc1ccc2c(c1)CN(C(=O)/C=C/C1CC1)[C@H](C(=O)O)C2" only.
< 50%

----------
- Test system: Mus musculus
- assay_protocol: Hypoglycemic activity in diabetic KK-Ay mouse model assessed as decrease in glucose level at 10 mg/kg, po qd for 4 days relative to untreated control
- Type: functional
- Parameters: scale not given: the % may be the effect or the level left
readout: Activity (%)
Numbers only here, please. The scale is %.

Known Activity results, listed for orientation:
[
  {
    "compound": "C/C=C/C=C/C(=O)N1Cc2cc(OCCc3nc(/C=C/C(C)CCC)oc3C)ccc2C[C@H]1C(=O)O.CC(C)(C)N (some centres undefined)",
    "measured_value": 71
  },
  {
    "compound": "CC(C)(C)N.Cc1oc(/C=C/CCC(C)C)nc1CCOc1ccc2c(c1)CN(C(=O)/C=C/C=C/CO)[C@H](C(=O)O)C2",
    "measured_value": 14
  },
  {
    "compound": "C/C=C/C=C/C(=O)N1Cc2cc(OCCc3nc(/C(=C/C)CC)oc3C)ccc2C[C@H]1C(=O)O.CC(C)(C)N",
    "measured_value": 47
  }
]

Answer with the recorded Activity of "CC(C)(C)N.CCO/C=C/C(=O)N1Cc2cc(OCCc3nc(/C=C/CCC(C)C)oc3C)ccc2C[C@H]1C(=O)O" only.
33

----------
Parameter Emax: see the listing below.
- measurement_target: Peroxisome proliferator-activated receptor gamma (Homo sapiens) (UniProt P37231)
- Sequence (P37231 whole entry): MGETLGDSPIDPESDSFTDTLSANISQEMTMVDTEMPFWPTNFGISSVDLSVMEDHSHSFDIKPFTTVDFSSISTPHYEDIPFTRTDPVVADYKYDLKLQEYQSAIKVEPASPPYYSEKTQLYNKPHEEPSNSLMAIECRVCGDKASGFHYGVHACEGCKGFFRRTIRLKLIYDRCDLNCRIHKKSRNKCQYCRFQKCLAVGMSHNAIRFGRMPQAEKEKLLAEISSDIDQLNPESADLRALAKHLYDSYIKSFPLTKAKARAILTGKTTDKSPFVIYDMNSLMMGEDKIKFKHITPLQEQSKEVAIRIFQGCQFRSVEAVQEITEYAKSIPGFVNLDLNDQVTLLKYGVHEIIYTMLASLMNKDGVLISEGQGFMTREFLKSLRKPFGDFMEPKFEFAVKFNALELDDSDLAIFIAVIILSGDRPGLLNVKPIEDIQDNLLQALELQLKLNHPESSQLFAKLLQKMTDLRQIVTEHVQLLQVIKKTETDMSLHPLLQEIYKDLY
- assay_protocol: Transactivation of human full length PPARgamma expressed in COS1 cells co-transfected with RXRalpha after 24 hrs by luciferase reporter gene assay relative to farglitazar
- Type: cell-based
- condition_summary: COS-1
Numbers only here, please. The scale is %.

[
  {
    "molecular_string": "CC(C)(C)N.Cc1oc(/C=C/CCC(C)C)nc1CCOc1ccc2c(c1)CN(C(=O)/C=C/c1ccco1)[C@H](C(=O)O)C2",
    "readout": "Emax",
    "measured_value": 102
  },
  {
    "molecular_string": "C/C=C/C=C/C(=O)N1Cc2cc(OCCc3nc(/C=C/CCC(C)C)oc3C)ccc2C[C@H]1C(=O)O.CC(C)(C)N",
    "readout": "Emax",
    "measured_value": 98
  },
  {
    "molecular_string": "C/C=C/C=C/C(=O)N1Cc2cc(OCCc3nc(/C=C/C(C)(C)CC)oc3C)ccc2C[C@H]1C(=O)O.CC(C)(C)N",
    "readout": "Emax",
    "measured_value": 77
  },
  {
    "molecular_string": "C/C=C/C=C/C(=O)N1Cc2cc(OCCc3nc(/C=C/C(CC)CC)oc3C)ccc2C[C@H]1C(=O)O.CC(C)(C)N",
    "readout": "Emax",
    "measured_value": 90
  }
]

Answer with the recorded Emax of "C/C=C/C=C/C(=O)N1Cc2cc(OCCc3nc(/C=C/C(C)(C)C)oc3C)ccc2C[C@H]1C(=O)O.CC(C)(C)N" only.
97

Answer with the recorded Emax of "CC(C)(C)N.Cc1oc(/C=C/CCC(C)C)nc1CCOc1ccc2c(c1)CN(C(=O)/C=C/C=C/CO)[C@H](C(=O)O)C2" only.
61

----------
- System: Mus musculus
- assay_protocol: Hypoglycemic activity in diabetic KK-Ay mouse model assessed as decrease in glucose level at 10 mg/kg, po qd for 4 days relative to untreated control
- Format: functional
- Parameters: scale not given: the % may be the effect or the level left
readout: Activity (%)
Numbers only here, please. The scale is %.

[
  {
    "molecule": "C/C=C/C=C/C(=O)N1Cc2cc(OCCc3nc(/C=C/C(C)(C)CC)oc3C)ccc2C[C@H]1C(=O)O.CC(C)(C)N",
    "Activity / %": 16
  },
  {
    "molecule": "CC(C)(C)N.Cc1oc(/C=C/CCC(C)C)nc1CCOc1ccc2c(c1)CN(C(=O)/C=C/c1cccs1)[C@H](C(=O)O)C2",
    "Activity / %": 45
  },
  {
    "molecule": "C/C=C/C=C/C(=O)N1Cc2cc(OCCc3nc(/C=C/C(CC)CC)oc3C)ccc2C[C@H]1C(=O)O.CC(C)(C)N",
    "Activity / %": 18
  },
  {
    "molecule": "C/C=C/C=C/C(=O)N1Cc2cc(OCCc3nc(/C=C/CC(C)(C)C)oc3C)ccc2C[C@H]1C(=O)O.CC(C)(C)N",
    "Activity / %": 39
  }
]

Consider the molecule "C/C=C/C=C/C(=O)N1Cc2cc(OCCc3nc(/C=C/C(C)(C)C)oc3C)ccc2C[C@H]1C(=O)O.CC(C)(C)N" tested on Mus musculus; state its Activity.
23

Consider the molecule "C/C=C/C=C/C(=O)N1Cc2cc(OCCc3nc(CCCCC(C)C)oc3C)ccc2C[C@H]1C(=O)O.CC(C)(C)N" tested on Mus musculus; state its Activity.
17

----------
Parameter Activity: see the listing below.
- Tested on: Mus musculus
- assay_protocol: Hypoglycemic activity in diabetic KK-Ay mouse model assessed as decrease in glucose level at 10 mg/kg, po qd for 4 days relative to untreated control
- Type: functional
- Parameters: scale not given: the % may be the effect or the level left
Numbers only here, please. The scale is %.

Known Activity results, listed for orientation:
[
  {
    "molecular_string": "CC(C)(C)N.CCC/C=C/C(=O)N1Cc2cc(OCCc3nc(/C=C/CCC(C)C)oc3C)ccc2C[C@H]1C(=O)O",
    "readout": "Activity",
    "measured_value": 50
  },
  {
    "molecular_string": "CC(C)(C)N.Cc1oc(/C=C/CCC(C)C)nc1CCOc1ccc2c(c1)CN(C(=O)/C=C/c1ccco1)[C@H](C(=O)O)C2",
    "readout": "Activity",
    "measured_value": 29
  },
  {
    "molecular_string": "CC(C)(C)N.CCCCCC(=O)N1Cc2cc(OCCc3nc(/C=C/CCC(C)C)oc3C)ccc2C[C@H]1C(=O)O",
    "readout": "Activity",
    "measured_value": 30
  },
  {
    "molecular_string": "CC(C)(C)N.CCOC/C=C/C(=O)N1Cc2cc(OCCc3nc(/C=C/CCC(C)C)oc3C)ccc2C[C@H]1C(=O)O",
    "readout": "Activity",
    "measured_value": 3
  },
  {
    "molecular_string": "CC(C)(C)N.CCOCCC(=O)N1Cc2cc(OCCc3nc(/C=C/CCC(C)C)oc3C)ccc2C[C@H]1C(=O)O",
    "readout": "Activity",
    "measured_value": -13
  },
  {
    "molecular_string": "C/C=C/C=C/C(=O)N1Cc2cc(OCCc3nc(/C(C)=C/CC)oc3C)ccc2C[C@H]1C(=O)O.CC(C)(C)N",
    "readout": "Activity",
    "measured_value": 40
  }
]

Answer with the recorded Activity of "C/C=C/C=C/C(=O)N1Cc2cc(OCCc3nc(/C=C/CC(C)C)oc3C)ccc2C[C@H]1C(=O)O.CC(C)(C)N" only.
58

Answer with the recorded Activity of "C/C=C/C=C/C(=O)N1Cc2cc(OCCc3nc(/C=C/C(C)C)oc3C)ccc2C[C@H]1C(=O)O.CC(C)(C)N" only.
38
